# test-details: Cmax in Sprague-Dawley rat at 10 mg/kg, ip measured for 72 hrs by LC-MS/MS analysis
# Assay type: ADME, organism-based
# Design: dose 10 mg/kg, time 72 hrs, route ip
# experimental-conditions: in vivo
property: Cmax (ng/mL)
Respond numerically; units are ng/mL and should not be typed.

Data request: Name the reported Cmax value associated with the compound "O=C(Cc1ccccc1)Nc1nnc(NC2CCN(c3nnc(NC(=O)c4nccn4Cc4ccc(C(F)(F)F)cc4)s3)CC2)s1"
Data returned: 262

====

# System: HCT-116
# test-details: Antiproliferative activity against human HCT-116 cells overexpressing GLS1 assessed as inhibition of cell proliferation measured after 72 hrs by MTT assay
# Type: functional, cell-based
# experimental-conditions: HCT-116, 72 h
Binary label based on IC50 with cut-off 4000 nM: below gives class 1, not below gives class 0.

These recorded examples may help you get a feel for the data.
>>> df
                         compound_structure  qualitative_label
0  Cc1ccc(Cn2cc(CCC(=O)Nc3nnc(N4CCC(Nc5nnc(NC(=O)Cc6ccccc6)s5)CC4)s3)nn2)cc1            class 1
1  COc1ccc(Cn2cc(CCC(=O)Nc3ccc(N4CC[C@@H](Nc5nnc(NC(=O)Cc6ccccn6)s5)C4)nn3)nn2)cc1            class 1
2  COc1ccc(Cn2cc(CCC(=O)Nc3nnc(N4CCC(Nc5nnc(NC(=O)Cc6ccccc6)s5)CC4)s3)nn2)cc1OC            class 1
3  Cc1cccc(C)c1Cn1cc(CCC(=O)Nc2ccc(N3CC[C@@H](Nc4nnc(NC(=O)Cc5ccccn5)s4)C3)nn2)nn1            class 1

Data request: Consider "COc1ccc(Cn2cc(CCC(=O)Nc3nnc(N4CC[C@@H](Nc5nnc(NC(=O)Cc6ccccc6)s5)C4)s3)nn2)cc1" . Does its IC50 lie strictly below 4000 nM?
Data returned: class 1

Data request: I wonder whether "O=C(Cc1ccccc1)Nc1nnc(NC2CCN(c3nnc(NC(=O)c4ccn(Cc5ccc(C(F)(F)F)cc5)n4)s3)CC2)s1" has IC50 below 4000 nM. Can you tell?
Data returned: class 1

Data request: Report whether reported IC50 is lower than 4000 nM (strictly) for "O=C(CCc1cn(Cc2ccc(OC(F)(F)F)cc2)nn1)Nc1ccc(N2CC[C@H](Nc3nnc(NC(=O)Cc4ccccn4)s3)C2)nn1"
Data returned: class 0

Data request: State whether 4000 nM exceeds IC50 recorded for "Cc1ccc(Cn2cc(CCC(=O)Nc3nnc(N4CC[C@H](Nc5nnc(NC(=O)Cc6ccccc6)s5)C4)s3)nn2)cc1" .
Data returned: class 0

Data request: Please state whether IC50 is below 4000 nM for "O=C(Cc1ccccc1)Nc1nnc(NC2CCN(c3nnc(NC(=O)CCc4cn(Cc5ccc(OC(F)(F)F)cc5)nn4)s3)CC2)s1"
Data returned: class 1

Data request: # check: IC50 < 4000 nM for "O=C(Cc1ccccc1)Nc1nnc(NC2CCN(c3nnc(NC(=O)c4nccn4Cc4ccc(C(F)(F)F)cc4)s3)CC2)s1"
Data returned: class 1

Data request: Dear reviewer, please state whether "Cc1ccc(Cn2cc(CCC(=O)Nc3ccc(N4CCC(Nc5nnc(NC(=O)Cc6ccccn6)s5)CC4)nn3)nn2)cc1" has IC50 strictly beneath 4000 nM.
Data returned: class 1

Data request: Please let me know if "Cc1ccc(Cn2cc(CCC(=O)Nc3ccc(N4CC[C@@H](Nc5nnc(NC(=O)Cc6ccccn6)s5)C4)nn3)nn2)cc1" shows IC50 below 4000 nM.
Data returned: class 1

Data request: Determine if "Cc1cccc(C)c1Cn1cc(CCC(=O)Nc2ccc(N3CCC(Nc4nnc(NC(=O)Cc5ccccn5)s4)CC3)nn2)nn1" shows IC50 strictly lower than 4000 nM.
Data returned: class 0

Data request: Record "O=C(Cc1ccccc1)Nc1nnc(N[C@H]2CCN(c3nnc(NC(=O)CCc4cn(Cc5ccc(OC(F)(F)F)cc5)nn4)s3)C2)s1" : is its IC50 strictly below 4000 nM?
Data returned: class 0
